assay: Inhibition of ROCK by enzyme-coupled luciferase-kinase assay
property name: IC50 (nM)
Just the number please, in nM, no unit attached.

Check out these entries, answers already filled in.
[
  {
    "compound": "c1ccc(CCn2c(C3COc4ccccc4O3)nc3ccc(-c4ccncc4)cc32)cc1 (stereo unspecified)",
    "property name": "IC50",
    "unit text": "nM",
    "reported value": 680
  },
  {
    "compound": "Cn1c(C2COc3ccccc3O2)nc2cc(-c3ccncc3)ccc21 (stereo unspecified)",
    "property name": "IC50",
    "unit text": "nM",
    "reported value": 1780
  }
]

Indicate its recorded IC50; the compound in question is Nc1nccc(-c2ccc3nc(C4COc5ccccc5C4)[nH]c3c2)n1 (stereo unspecified)
8

====

test: Clearance in rat at 2 mg/kg, po or 1 mg/kg, iv; format: ADME, organism-based; details: in vivo
Below, each entry is listed with its recorded clearance.
Just the number please, in mL/min/kg, no unit attached.

Indicate its recorded clearance; the compound in question is Nc1nccc(-c2ccc3nc(C4COc5ccc(C(=O)NCCc6cccnc6)cc5C4)[nH]c3c2)n1 (configuration not stated)
58

Indicate its recorded clearance; the compound in question is CN(C)CCCNC(=O)c1ccc2c(c1)CC(c1nc3ccc(-c4ccnc(N)n4)cc3[nH]1)CO2 (configuration not stated)
27

====

test system: Rattus norvegicus; assay: AUC in rat at 2 mg/kg, po; type: ADME, organism-based, Plasma; set-up: dose 2 mg/kg, route oral; conditions: in vivo
Below, each entry is listed with its recorded AUC.
Just the number please, in µM·h, no unit attached.

Check out these entries, answers already filled in.
[
  {
    "compound": "COc1ccc2c(c1)CC(c1nc3ccc(-c4ccnc(N)n4)cc3[nH]1)CO2 (stereo not drawn)",
    "system": "Rattus norvegicus",
    "AUC (µM·h)": 1.9
  },
  {
    "compound": "Nc1nccc(-c2ccc3nc(C4COc5ccc(C(=O)NCCc6cccnc6)cc5C4)[nH]c3c2)n1 (stereo not drawn)",
    "system": "Rattus norvegicus",
    "AUC (µM·h)": 0.08
  }
]

Indicate its recorded AUC; the compound in question is CN(C)CCCNC(=O)c1ccc2c(c1)CC(c1nc3ccc(-c4ccnc(N)n4)cc3[nH]1)CO2 (stereo not drawn)
0.01

====

test: Inhibition of ROCK by enzyme-coupled luciferase-kinase assay
Below, each entry is listed with its recorded IC50.
Just the number please, in nM, no unit attached.

[
  {
    "compound": "Cn1c(C2COc3ccccc3O2)nc2ccc(-c3ccncc3)cc21 (stereo not given)",
    "unit text": "nM",
    "IC50": 15
  }
]

Indicate its recorded IC50; the compound in question is COc1cccc2c1OCC(c1nc3ccc(-c4ccnc(N)n4)cc3[nH]1)C2 (stereo not given)
256

Indicate its recorded IC50; the compound in question is COc1cccc2c1CC(c1nc3ccc(-c4ccnc(N)n4)cc3[nH]1)CO2 (stereo not given)
25

Indicate its recorded IC50; the compound in question is Nc1nccc(-c2ccc3nc(C4COc5ccc(C(=O)NCCc6cccnc6)cc5C4)[nH]c3c2)n1 (stereo not given)
0.25

Indicate its recorded IC50; the compound in question is COc1ccc2c(c1)OCC(c1nc3ccc(-c4ccnc(N)n4)cc3[nH]1)C2 (stereo not given)
95

Indicate its recorded IC50; the compound in question is Nc1nccc(-c2ccc3nc(C4COc5ccc(C(=O)NCCc6ccccc6)cc5C4)[nH]c3c2)n1 (stereo not given)
1.7

====

Biological target: Cytochrome P450 1A2 (Homo sapiens)
Sequence (P05177 whole entry): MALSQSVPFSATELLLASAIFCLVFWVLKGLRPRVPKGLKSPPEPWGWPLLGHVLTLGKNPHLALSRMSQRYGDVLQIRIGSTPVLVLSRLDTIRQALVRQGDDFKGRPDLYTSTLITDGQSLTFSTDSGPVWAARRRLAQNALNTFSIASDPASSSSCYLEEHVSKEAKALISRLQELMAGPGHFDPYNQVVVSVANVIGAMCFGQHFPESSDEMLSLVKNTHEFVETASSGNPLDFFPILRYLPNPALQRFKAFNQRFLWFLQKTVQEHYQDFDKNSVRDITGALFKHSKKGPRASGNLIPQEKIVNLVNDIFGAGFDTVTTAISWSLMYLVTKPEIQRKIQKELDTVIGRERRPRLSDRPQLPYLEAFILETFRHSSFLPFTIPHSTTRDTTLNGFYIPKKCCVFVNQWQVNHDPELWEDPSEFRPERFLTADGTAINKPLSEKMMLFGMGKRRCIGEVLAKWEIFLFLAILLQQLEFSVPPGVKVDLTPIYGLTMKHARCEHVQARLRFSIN
Assay: Inhibition of CYP1A2
Type: ADME
property name: Activity

Check out these entries, answers already filled in.
[
  {
    "compound": "COc1ccc2c(c1)CC(c1nc3c(OCCCO)cc(-c4ccncc4)cc3[nH]1)CO2 (stereo unspecified)",
    "Activity": "Active"
  },
  {
    "compound": "Cc1cc(-c2ccncc2)cc2[nH]c(C3COc4ccccc4O3)nc12 (stereo unspecified)",
    "Activity": "Active"
  },
  {
    "compound": "FC(F)(F)c1cc2nc(C3COc4ccccc4O3)[nH]c2cc1-c1ccncc1 (stereo unspecified)",
    "Activity": "Active"
  },
  {
    "compound": "Cn1c(C2COc3ccccc3O2)nc2cc(-c3ccncc3)ccc21 (stereo unspecified)",
    "Activity": "Active"
  },
  {
    "compound": "c1ccc2c(c1)CC(c1nc3ccc(-c4ccncc4)cc3[nH]1)CO2 (stereo unspecified)",
    "Activity": "Active"
  },
  {
    "compound": "c1ccc2c(c1)OCC(c1nc3ccc(-c4ccncc4)cc3[nH]1)O2 (stereo unspecified)",
    "Activity": "Active"
  },
  {
    "compound": "COc1ccc2c(c1)CC(c1nc3c(OCCN(C)C)cc(-c4ccncc4)cc3[nH]1)CO2 (stereo unspecified)",
    "Activity": "Active"
  },
  {
    "compound": "Cn1c(C2COc3ccccc3O2)nc2ccc(-c3ccncc3)cc21 (stereo unspecified)",
    "Activity": "Active"
  }
]

Indicate its recorded Activity; the compound in question is c1ccc(CCn2c(C3COc4ccccc4O3)nc3ccc(-c4ccncc4)cc32)cc1 (stereo unspecified)
Active

Indicate its recorded Activity; the compound in question is c1ccc2c(c1)OCC(c1nc3ccc(-c4ccncc4)cc3n1C1CCOCC1)O2 (stereo unspecified)
Active

Indicate its recorded Activity; the compound in question is COCCn1c(C2COc3ccccc3O2)nc2ccc(-c3ccncc3)cc21 (stereo unspecified)
Active

====

assay: Selectivity ratio of IC50 for PKA to IC50 to ROCK
property name: Ratio IC50
# print the numeric value only

Check out these entries, answers already filled in.
[
  {
    "compound": "COc1c(-c2ccncc2)ccc2nc(C3COc4ccccc4C3)[nH]c12 (stereo not given)",
    "reported value": 46
  },
  {
    "compound": "c1ccc2c(c1)OCC(c1nc3ccc(-c4ccncc4)cc3[nH]1)O2 (stereo not given)",
    "reported value": 47
  },
  {
    "compound": "FC(F)(F)c1cc2nc(C3COc4ccccc4O3)[nH]c2cc1-c1ccncc1 (stereo not given)",
    "reported value": 1
  },
  {
    "compound": "CN(C)CCCNC(=O)c1ccc2c(c1)CC(c1nc3ccc(-c4ccnc(N)n4)cc3[nH]1)CO2 (stereo not given)",
    "reported value": 227
  }
]

Now examine the next entry.
Indicate its recorded Ratio IC50; the compound in question is c1ccc2c(c1)OCC(c1nc3ccc(-c4ccncc4)cc3n1CCN1CCOCC1)O2 (stereo not given)
47

====

test: Inhibition of PKA
pIC50: −log10 of the molar value.
Is pIC50 at least 6? Then criterion met. If not, criterion not met.

Please review the following examples before continuing.
[
  {
    "molecule": "Nc1nccc(-c2ccc3nc(C4COc5ccc(C(=O)NCCO)cc5C4)[nH]c3c2)n1 (stereo unspecified)",
    "label": "criterion met"
  },
  {
    "molecule": "c1ccc2c(c1)OCC(c1nc3ccc(-c4ccncc4)cc3n1CCN1CCOCC1)O2 (stereo unspecified)",
    "label": "criterion not met"
  },
  {
    "molecule": "Cn1c(C2COc3ccccc3O2)nc2ccc(-c3ccncc3)cc21 (stereo unspecified)",
    "label": "criterion not met"
  }
]

Assess whether reported pIC50 for COc1cccc2c1CC(c1nc3ccc(-c4ccnc(N)n4)cc3[nH]1)CO2 (stereo unspecified) sits at 6 or higher.
criterion met

Assess whether reported pIC50 for Cc1c(-c2ccncc2)cc2[nH]c(C3COc4ccccc4O3)nc2c1C (stereo unspecified) sits at 6 or higher.
criterion not met

====

target: Cytochrome P450 2D6 (Homo sapiens, UniProt P10635); assay: Inhibition of CYP2D6; format: ADME
Sequence (P10635 whole entry): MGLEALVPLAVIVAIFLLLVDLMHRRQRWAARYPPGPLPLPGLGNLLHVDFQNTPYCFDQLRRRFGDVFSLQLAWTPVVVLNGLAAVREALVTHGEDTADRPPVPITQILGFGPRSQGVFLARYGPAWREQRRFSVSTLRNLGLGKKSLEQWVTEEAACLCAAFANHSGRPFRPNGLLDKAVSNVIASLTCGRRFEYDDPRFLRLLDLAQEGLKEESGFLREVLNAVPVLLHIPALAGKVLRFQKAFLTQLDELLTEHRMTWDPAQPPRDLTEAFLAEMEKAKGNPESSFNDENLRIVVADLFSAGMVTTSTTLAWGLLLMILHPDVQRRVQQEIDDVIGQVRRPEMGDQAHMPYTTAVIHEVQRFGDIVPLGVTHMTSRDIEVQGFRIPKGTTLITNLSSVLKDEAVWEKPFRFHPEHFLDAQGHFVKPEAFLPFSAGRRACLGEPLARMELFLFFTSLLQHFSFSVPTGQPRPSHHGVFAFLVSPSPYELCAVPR
property name: Activity

Check out these entries, answers already filled in.
[
  {
    "molecule": "c1ccc2c(c1)CC(c1nc3ccc(-c4ccncc4)cc3[nH]1)CO2 (stereo unspecified)",
    "system": "Cytochrome P450 2D6 (Homo sapiens, UniProt P10635)",
    "property name": "Activity",
    "reported value": "Active"
  },
  {
    "molecule": "c1ccc2c(c1)OCC(c1nc3ccc(-c4ccncc4)cc3n1CC1CC1)O2 (stereo unspecified)",
    "system": "Cytochrome P450 2D6 (Homo sapiens, UniProt P10635)",
    "property name": "Activity",
    "reported value": "Active"
  },
  {
    "molecule": "COCCn1c(C2COc3ccccc3O2)nc2ccc(-c3ccncc3)cc21 (stereo unspecified)",
    "system": "Cytochrome P450 2D6 (Homo sapiens, UniProt P10635)",
    "property name": "Activity",
    "reported value": "Active"
  },
  {
    "molecule": "COc1ccc2c(c1)CC(c1nc3c(OCCN(C)C)cc(-c4ccncc4)cc3[nH]1)CO2 (stereo unspecified)",
    "system": "Cytochrome P450 2D6 (Homo sapiens, UniProt P10635)",
    "property name": "Activity",
    "reported value": "Active"
  },
  {
    "molecule": "Cc1cc(-c2ccncc2)cc2[nH]c(C3COc4ccccc4O3)nc12 (stereo unspecified)",
    "system": "Cytochrome P450 2D6 (Homo sapiens, UniProt P10635)",
    "property name": "Activity",
    "reported value": "Active"
  },
  {
    "molecule": "c1ccc2c(c1)OCC(c1nc3ccc(-c4ccncc4)cc3[nH]1)O2 (stereo unspecified)",
    "system": "Cytochrome P450 2D6 (Homo sapiens, UniProt P10635)",
    "property name": "Activity",
    "reported value": "Active"
  },
  {
    "molecule": "COc1c(-c2ccncc2)ccc2nc(C3COc4ccccc4C3)[nH]c12 (stereo unspecified)",
    "system": "Cytochrome P450 2D6 (Homo sapiens, UniProt P10635)",
    "property name": "Activity",
    "reported value": "Active"
  },
  {
    "molecule": "c1ccc(CCn2c(C3COc4ccccc4O3)nc3ccc(-c4ccncc4)cc32)cc1 (stereo unspecified)",
    "system": "Cytochrome P450 2D6 (Homo sapiens, UniProt P10635)",
    "property name": "Activity",
    "reported value": "Active"
  },
  {
    "molecule": "c1ccc2c(c1)OCC(c1nc3ccc(-c4ccncc4)cc3n1C1CCOCC1)O2 (stereo unspecified)",
    "system": "Cytochrome P450 2D6 (Homo sapiens, UniProt P10635)",
    "property name": "Activity",
    "reported value": "Active"
  },
  {
    "molecule": "Cn1c(C2COc3ccccc3O2)nc2cc(-c3ccncc3)ccc21 (stereo unspecified)",
    "system": "Cytochrome P450 2D6 (Homo sapiens, UniProt P10635)",
    "property name": "Activity",
    "reported value": "Active"
  }
]

Indicate its recorded Activity; the molecule in question is COc1ccc2c(c1)CC(c1nc3c(OCCCO)cc(-c4ccncc4)cc3[nH]1)CO2 (stereo unspecified)
Active

Indicate its recorded Activity; the molecule in question is c1ccc(Cn2c(C3COc4ccccc4O3)nc3ccc(-c4ccncc4)cc32)cc1 (stereo unspecified)
Active

Indicate its recorded Activity; the molecule in question is c1ccc2c(c1)OCC(c1nc3ccc(-c4ccncc4)cc3n1CCN1CCOCC1)O2 (stereo unspecified)
Active
